- Test System: reduced SAH hydrolase (Bos taurus, UniProt Q3MHL4)
- Construct: SAH hydrolase is purified with classical chromatographical methods to homogeneity from organs e.g. from bovine kidney; from tissue; host or cells: bovine kidney
- Assay: 3H-adenosine displacement using reduced SAH hydrolase
- Type: binding, bovine
- Experimental Context: reduced SAH hydrolase; read-out: EC50 values of 3H-adenosine displacement, reduced SAH hydrolase
Listed compounds paired with reported EC50

Molecule Smiles	Reported Relation	EC50 [µM]
Nc1ncnc2c1ncn2[C@H]1C[C@H](O)[C@@H](CO)O1	=	0.63
Nc1ncnc2nc[nH]c12	>	100
Nc1ncnc2c1ncn2[C@@H]1O[C@H](CSCC[C@H](N)C(=O)O)[C@@H](O)[C@H]1O	=	0.4
OC[C@H]1O[C@@H](n2cnc3c(O)ncnc32)[C@H](O)[C@@H]1O	=	10
Nc1ncnc2c1ncn2[C@@H]1O[C@H](COP(=O)(O)OP(=O)(O)O)[C@@H](O)[C@H]1O	>	100
N[C@@H](CCS)C(=O)O	=	5
CCNC(=O)[C@H]1O[C@@H](n2cnc3c(N)ncnc32)[C@H](O)[C@@H]1O	>	100

====

- Test System: active SAH hydrolase (Bos taurus)
- Construct: SAH hydrolase is purified with classical chromatographical methods to homogeneity from organs e.g. from bovine kidney; from tissue; host or cells: bovine kidney
- Sequence (Q3MHL4 2-432 limits assumed): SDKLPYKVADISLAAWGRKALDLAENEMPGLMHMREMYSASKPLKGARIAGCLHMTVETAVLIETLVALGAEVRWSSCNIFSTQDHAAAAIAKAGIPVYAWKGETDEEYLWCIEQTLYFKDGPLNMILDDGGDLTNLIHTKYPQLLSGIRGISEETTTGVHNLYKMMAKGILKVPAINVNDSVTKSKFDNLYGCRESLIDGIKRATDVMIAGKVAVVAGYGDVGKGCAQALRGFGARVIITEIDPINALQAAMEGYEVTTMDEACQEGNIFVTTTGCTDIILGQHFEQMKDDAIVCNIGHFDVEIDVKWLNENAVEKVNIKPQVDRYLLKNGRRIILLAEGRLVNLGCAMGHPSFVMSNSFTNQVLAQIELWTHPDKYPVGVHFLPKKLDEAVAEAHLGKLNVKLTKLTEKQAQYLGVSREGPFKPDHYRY
- Assay: 3H-adenosine displacement using active SAH hydrolase
- Type: binding, bovine
- Experimental Context: active SAH hydrolase; read-out: EC50 values of 3H-adenosine displacement, active SAH hydrolase
Value Type: log10 of EC50 (log10 of the value in µM)

Molecule Smiles	Test System	log10 of EC50
N[C@@H](CCS)C(=O)O	active SAH hydrolase (Bos taurus)	0.70
OC[C@H]1O[C@@H](n2cnc3c(O)ncnc32)[C@H](O)[C@@H]1O	active SAH hydrolase (Bos taurus)	1.00
Nc1ncnc2c1ncn2[C@H]1C[C@H](O)[C@@H](CO)O1	active SAH hydrolase (Bos taurus)	-1.03
CCNC(=O)[C@H]1O[C@@H](n2cnc3c(N)ncnc32)[C@H](O)[C@@H]1O	active SAH hydrolase (Bos taurus)	-0.62
Nc1ncnc2c1ncn2[C@@H]1O[C@H](CSCC[C@H](N)C(=O)O)[C@@H](O)[C@H]1O	active SAH hydrolase (Bos taurus)	-0.61
Nc1ncnc2nc[nH]c12	active SAH hydrolase (Bos taurus)	1.06
Nc1ncnc2c1ncn2[C@@H]1O[C@H](COP(=O)(O)O)[C@@H](O)[C@H]1O	active SAH hydrolase (Bos taurus)	1.00
Nc1ncnc2c1ncn2[C@@H]1O[C@H](COP(=O)(O)OP(=O)(O)O)[C@@H](O)[C@H]1O	active SAH hydrolase (Bos taurus)	1.00
